# testedTarget: NEK1 (Homo sapiens)
# Sequence (Q96PY6 1-1258): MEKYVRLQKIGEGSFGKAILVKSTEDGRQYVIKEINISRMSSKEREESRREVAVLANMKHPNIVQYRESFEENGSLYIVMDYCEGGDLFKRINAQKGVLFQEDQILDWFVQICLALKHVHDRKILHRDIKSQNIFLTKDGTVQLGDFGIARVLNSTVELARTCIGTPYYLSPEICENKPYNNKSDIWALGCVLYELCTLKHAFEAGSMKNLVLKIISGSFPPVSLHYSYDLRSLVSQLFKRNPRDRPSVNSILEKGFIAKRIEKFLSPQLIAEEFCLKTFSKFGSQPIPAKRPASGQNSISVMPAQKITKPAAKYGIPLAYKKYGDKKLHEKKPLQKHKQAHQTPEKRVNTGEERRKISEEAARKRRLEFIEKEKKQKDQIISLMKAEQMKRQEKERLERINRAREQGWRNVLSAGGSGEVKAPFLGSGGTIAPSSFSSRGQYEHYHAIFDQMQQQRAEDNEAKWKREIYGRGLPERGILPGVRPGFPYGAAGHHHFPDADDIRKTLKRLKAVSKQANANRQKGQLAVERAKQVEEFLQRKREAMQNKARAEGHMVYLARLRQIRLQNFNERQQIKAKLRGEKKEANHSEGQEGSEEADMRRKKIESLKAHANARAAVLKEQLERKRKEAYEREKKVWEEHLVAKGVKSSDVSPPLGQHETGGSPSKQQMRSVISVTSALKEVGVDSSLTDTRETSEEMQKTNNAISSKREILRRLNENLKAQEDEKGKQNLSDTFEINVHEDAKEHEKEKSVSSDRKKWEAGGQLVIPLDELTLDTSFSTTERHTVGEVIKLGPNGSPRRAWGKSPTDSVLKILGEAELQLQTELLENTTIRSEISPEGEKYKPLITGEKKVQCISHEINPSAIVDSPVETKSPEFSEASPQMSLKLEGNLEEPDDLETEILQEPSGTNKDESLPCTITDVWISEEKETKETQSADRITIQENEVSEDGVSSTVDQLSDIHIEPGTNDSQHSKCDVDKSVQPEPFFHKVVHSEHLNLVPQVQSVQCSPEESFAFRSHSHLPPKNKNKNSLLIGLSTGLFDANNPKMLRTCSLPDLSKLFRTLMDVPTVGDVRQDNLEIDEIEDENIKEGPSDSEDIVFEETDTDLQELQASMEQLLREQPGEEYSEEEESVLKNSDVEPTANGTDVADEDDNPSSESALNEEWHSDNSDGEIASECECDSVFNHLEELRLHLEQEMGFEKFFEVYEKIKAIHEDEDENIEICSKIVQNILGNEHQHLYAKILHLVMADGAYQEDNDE
observable: IC50

Problem: Kindly state the measured IC50 obtained for CN(C)[C@H]1CC[C@@]2(C)C(=CCC3[C@@H]4CC[C@H](c5ccc6ccncc6c5)[C@@]4(C)CC[C@@H]32)C1 (stereo in doubt) [Compound 33] with NEK1 (Homo sapiens).
Result: > 10 µM
